MEASUREMENT DESCRIPTION: Steady-state pharmacokinetics of film-coated granules in pediatric subjects by age group
Assay type: in vivo, human
CONDITION PARAMETERS: human, blood, oral, Week 2; 6 to <9 years old; pre-adjustment, 4 sachets, 160 mg/60 mg; film-coated granules; read-out: AUC, Geometric Mean
TEST READOUT: AUC (ng·h/mL)
Your answer is read as ng·h/mL, so omit the unit and give the number.

For COC(=O)N[C@H](C(=O)N1CCC[C@H]1c1nc2cc([C@H]3CC[C@H](c4cc5nc([C@@H]6CCCN6C(=O)[C@@H](NC(=O)OC)[C@@H](C)OC)[nH]c5cc4F)N3c3cc(F)c(N4CCC(c5ccc(F)cc5)CC4)c(F)c3)c(F)cc2[nH]1)[C@@H](C)OC [Compound 2] , write its AUC.
987

---

MEASUREMENT DESCRIPTION: Single-dose crossover: bioavailability of Compound 1/Compound 2 mini-tablets
Type: in vivo, human
CONDITION PARAMETERS: human, in vivo, oral, Regimen F: single dose mini-tablets 200 mg/120 mg, fasting; N = 14; median
Provide the reported Tmax of each item.
Your answer should be a plain number; it is taken to be in h.

Quote Tmax reported for "CC(C)(C)[C@@H]1NC(=O)O[C@@H]2CCC[C@H]2OC/C=C/C(F)(F)c2nc3ccccc3nc2O[C@@H]2C[C@@H](C(=O)N[C@]3(C(=O)NS(=O)(=O)C4(C)CC4)C[C@H]3C(F)F)N(C2)C1=O" please.
1

Quote Tmax reported for "COC(=O)N[C@H](C(=O)N1CCC[C@H]1c1nc2cc([C@H]3CC[C@H](c4cc5nc([C@@H]6CCCN6C(=O)[C@@H](NC(=O)OC)[C@@H](C)OC)[nH]c5cc4F)N3c3cc(F)c(N4CCC(c5ccc(F)cc5)CC4)c(F)c3)c(F)cc2[nH]1)[C@@H](C)OC" please.
4
